Test: Long-term/accelerated stability
Type: physicochemical
Details: 40° C./75% RH, initial
Measured Purity % Initial by item
Unit % implied. Number only.

Check out these entries, answers already filled in.
CCc1c(F)ccc2cc(O)cc(-c3nc4c5c(nc(OC[C@@]67CCCN6C[C@H](F)C7)nc5c3F)N3C[C@H]5CC[C@H](N5)[C@H]3CO4)c12 [Crystal form C] ... 99.7
CCc1c(F)ccc2cc(O)cc(-c3nc4c5c(nc(OC[C@@]67CCCN6C[C@H](F)C7)nc5c3F)N3C[C@H]5CC[C@H](N5)[C@H]3CO4)c12 [Crystal form I] ... 99.6
CCc1c(F)ccc2cc(O)cc(-c3nc4c5c(nc(OC[C@@]67CCCN6C[C@H](F)C7)nc5c3F)N3C[C@H]5CC[C@H](N5)[C@H]3CO4)c12 [Crystal form J] ... 99.6
CCc1c(F)ccc2cc(O)cc(-c3nc4c5c(nc(OC[C@@]67CCCN6C[C@H](F)C7)nc5c3F)N3C[C@H]5CC[C@H](N5)[C@H]3CO4)c12 [Crystal form A] ... 99.3
CCc1c(F)ccc2cc(O)cc(-c3nc4c5c(nc(OC[C@@]67CCCN6C[C@H](F)C7)nc5c3F)N3C[C@H]5CC[C@H](N5)[C@H]3CO4)c12 [Crystal form K] ... 99.8

Kindly consider the entry below.
For reference, reported Purity % Initial for CCc1c(F)ccc2cc(O)cc(-c3nc4c5c(nc(OC[C@@]67CCCN6C[C@H](F)C7)nc5c3F)N3C[C@H]5CC[C@H](N5)[C@H]3CO4)c12 [Crystal form B] stands at 99.4

Where do the numbers come from? From patent US20260209250A1.
